The following compounds are listed with their measured Dmax values.
biological target: BCL6 (Homo sapiens); construct: endogenous in cells; host or cells: T47D breast cancer epithelial cells; experiment: Immunofluorescence protocol for high content imaging of BCL6 (degradation) in T47D cells, 3 days compound treatment; assay type: cell-based; settings: T47D, read-out: Mean Dmax (%)** category

- COMPOUND: "CNC(=O)COc1cc2cc(Nc3nc(N4CCC(O[C@H]5C[C@H](N6CCC(O)(c7ccc8c(c7)C(=O)N(C7CCC(=O)NC7=O)C8=O)CC6)C5)CC4)ncc3Cl)ccc2n(C(C)C)c1=O (some centres unmarked) [Compound 275]"
  TARGET_OF_ASSAY: "BCL6 (Homo sapiens)"
  Dmax: "≥ 70%"

Given CNC(=O)COc1cc2c(F)c(Nc3cc(N4CCC(F)(CN5CCC6(CC5)CN(c5ccc7c(c5F)CN(C5CCC(=O)NC5=O)C7=O)C6)CC4)ncc3Cl)ccc2n(C(C)C)c1=O (centres unmarked) [Compound 259] , respond with its Dmax.
50 to 70%

Given CNC(=O)COc1cc2cc(Nc3nc(N4CCC(CN5CCC6(CC5)CC5(CN(c7ccc8c(c7)C(=O)N(C7CCC(=O)NC7=O)C8=O)C5)C6)CC4)ncc3Cl)ccc2n(C(C)C)c1=O (centres unmarked) [Compound 373] , respond with its Dmax.
≥ 70%

Given CNC(=O)COc1cc2cc(Nc3nc(N4CCC(O[C@H]5C[C@H](N6CCC(c7ccc8c(c7C(F)(F)F)CN(C7CCC(=O)NC7=O)C8=O)CC6)C5)CC4)ncc3Cl)ccc2n(C(C)C)c1=O (some centres unmarked) [Compound 226] , respond with its Dmax.
≥ 70%

Given CNC(=O)COc1cc2c(F)c(Nc3nc(N4CCC(CN5CCC6(CC5)CN(c5ccc7c(c5)C(=O)N(C5CCC(=O)NC5=O)C7=O)C6(C)C)CC4)ncc3Cl)ccc2n(C(C)C)c1=O (centres unmarked) [Compound 375] , respond with its Dmax.
≥ 70%

----------
The following molecules are listed with their measured Dmax values.
target: BCL6 (Homo sapiens, UniProt P41182); construct: endogenous in cells; host or cells: T47D breast cancer epithelial cells; test: Immunofluorescence protocol for high content imaging of BCL6 (degradation) in T47D cells, 3 days compound treatment; assay type: cell-based; conditions: T47D cells, 3 days compound treatment, read-out: Mean Dmax (%)** category

Illustrative cases are given below, each with its answer.
- MOLECULE: "CNC(=O)COc1cc2cc(Nc3nc(N4CCC(CN5CC[C@]6(CCN(c7ccc8c(c7)CN([C@@H]7CCC(=O)NC7=O)C8=O)C6)C5)CC4)ncc3Cl)ccc2n(C(C)C)c1=O [Compound 2]"
  Dmax: "≥ 70%"
- MOLECULE: "CNC(=O)COc1cc2cc(Nc3nc(N4CCC(O[C@H]5C[C@H](N6CCC(c7cc(F)c8c(c7OC)CN(C7CCC(=O)NC7=O)C8=O)CC6)C5)CC4)ncc3Cl)ccc2n(C(C)C)c1=O (some centres unmarked) [Compound 128]"
  Dmax: "50 to 70%"
- MOLECULE: "CNC(=O)COc1cc2cc(Nc3nc(N4CCC(CN5CCC6(CN(c7cccc8c7C(=O)N(C7CCC(=O)NC7=O)C8=O)C6)C(F)(F)C5)CC4)ncc3Cl)ccc2n(C(C)C)c1=O (centres unmarked) [Compound 91]"
  Dmax: "50 to 70%"

Given CNC(=O)COc1cc2cc(Nc3nc(N4CCC(CN5CCC6(CN(c7ccc8c(c7)C(=O)N(C7CCC(=O)NC7=O)C8=O)C6)C(F)(F)C5)CC4)ncc3Cl)ccc2n(C(C)C)c1=O (centres unmarked) [Compound 38] , respond with its Dmax.
50 to 70%

Given CNC(=O)COc1cc2cc(Nc3nc(N4CCN(C(C)(C)C5CCN(c6cc7c(c(OC)c6)C(=O)N(C6CCC(=O)NC6=O)C7)CC5)CC4)ncc3Cl)ccc2n(C(C)C)c1=O (centres unmarked) [Compound 77] , respond with its Dmax.
50 to 70%

Given CNC(=O)COc1cc2cc(Nc3nc(N4CCC(CN5CCC6(CN(c7cc8c(cc7F)C(=O)N(C7CCC(=O)NC7=O)C8)C6)C(F)(F)C5)CC4)ncc3Cl)ccc2n(C(C)C)c1=O (centres unmarked) [Compound 100] , respond with its Dmax.
50 to 70%

Given CNC(=O)COc1cc2cc(Nc3nc(N4CCN(C(C)(C)C5CCN(c6cccc7c6CN(C6CCC(=O)NC6=O)C7=O)CC5)CC4)ncc3Cl)ccc2n(C(C)C)c1=O (centres unmarked) [Compound 104] , respond with its Dmax.
50 to 70%

Given CNC(=O)COc1cc2cc(Nc3nc(N4CCC(CN5CCC6(CCN(c7cc(F)cc8c7C(=O)N(C7CCC(=O)NC7=O)C8=O)C6)C5)CC4)ncc3Cl)ccc2n(C(C)C)c1=O (centres unmarked) [Compound 138] , respond with its Dmax.
50 to 70%

Given CNC(=O)COc1cc2cc(Nc3nc(N4CCC(OC5CCC6(CC5)CN(c5cccc7c5C(=O)N(C5CCC(=O)NC5=O)C7)C6)CC4)ncc3Cl)ccc2n(C(C)C)c1=O (centres unmarked) [Compound 70] , respond with its Dmax.
50 to 70%

Given CNC(=O)COc1cc2cc(Nc3nc(N4CCC(CN5CCC6(CCN(c7ccc8c(c7)CN(C7CCC(=O)NC7=O)C8=O)C6=O)C5)CC4)ncc3Cl)ccc2n(C(C)C)c1=O (centres unmarked) [Compound 48] , respond with its Dmax.
50 to 70%
